system: 885724-159-R-J1-PDC complex spheroid viability; experiment: Anticancer human tumor 885724-159-R-J1-PDC patient-derived pancreatic adenocarcinoma cell line growth inhibition [POLQ]; conditions: second compound 0.316 µM; first compound 10 µM; hits give low values;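 note: spheroids exposed to compounds for 7 days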
Below, each entry is listed alongside its reported viability, T/C.
property.label: viability, T/C

{"columns": ["molecule", "test.target", "value"],
 "data": [
  ["CC1COCCN1c1cc(-c2ccnn2C)c2ccnc(-c3ccn[nH]3)c2n1 (stereo not drawn) + COC1C(OC(N)=O)C(O)C(Oc2ccc3c(O)c(NC(=O)c4ccc(O)c(CC=C(C)C)c4)c(=O)oc3c2C)OC1(C)C", "885724-159-R-J1-PDC complex spheroid viability", "36.2%"],
  ["Nc1ccn(C2OC(CO)C(O)C2(F)F)c(=O)n1 (stereo not drawn) + Nc1ccc(C#CCN(C(=O)Cc2ncc(C(F)(F)F)cc2C(F)(F)F)c2ccc(F)cc2)nn1", "885724-159-R-J1-PDC complex spheroid viability", "46.3%"],
  ["O=c1[nH]cc(F)c(=O)[nH]1 + Nc1ccc(C#CCN(C(=O)Cc2ncc(C(F)(F)F)cc2C(F)(F)F)c2ccc(F)cc2)nn1", "885724-159-R-J1-PDC complex spheroid viability", "82.7%"]
]}

Sourced from PubChem BioAssay AID1963832
